# Test system: ICR (CD-1) mice
# Assay Overview: In vivo toxicity in mice (SC, IN, IP routes)
# Set-up: unit not given here
# Run Parameters: serum; IP, 3 doses (1hr, 12hr, 24hr); RN7-IN10, RN7-IN8 20 mg/kg; RN7-IN9, RN7-IN6 10 mg/kg; day 7; mean±SD, 4 mice
Reported Metric: Total bilirubin
Numbers only.

FLGGLIKKWPWWPWRR-NH2 [RN7-IN9, hybrid peptide of ranalexin (residues 1-7) and indolicidin (residues 5-13)]: 1.9
FLGGLIKWWPWRR-NH2 [RN7-IN6, hybrid peptide of ranalexin (residues 1-7) and indolicidin (residues 8-13)]: 2.1
FLGGLIKWPWWPWRR-NH2 [RN7-IN8, hybrid peptide of ranalexin (residues 1-7) and indolicidin (residues 6-13)]: 1.98

In the following, a different substance is considered.
Please report the measured Total bilirubin for FLGGLIKWKWPWWPWRR-NH2 [RN7-IN10, hybrid peptide of ranalexin (residues 1-7) and indolicidin (residues 4-13)]
1.82
